test system: HEK293 human embryonic kidney cell line; assay: MTT cytotoxicity assay in normal HEK293 cells; type: cell-based; details: Homo sapiens, 24 h treatment, mean ± SD
measured-metric: IC50

molecule: CCCC(CCC)C(=O)N/N=C1\C(=O)N(C)c2ccccc21
result: > 100 µM

molecule: O=C1C(=O)N(Cc2ccccc2)c2ccccc21
result: > 100 µM

molecule: CCCC(CCC)C(=O)N/N=C1\C(=O)Nc2ccc(Br)cc21
result: 26.1 µM

molecule: CCCC(CCC)C(=O)N/N=C1\C(=O)N(Cc2ccccc2)c2ccccc21
result: > 100 µM

molecule: CN1C(=O)C(=O)c2ccccc21
result: > 100 µM

molecule: CCCC(CCC)C(=O)N/N=C1\C(=O)Nc2ccc(Cl)cc21
result: 4.77 µM

molecule: O=c1[nH]cc(F)c(=O)[nH]1 [Compound 5-FU, 5-Fluorouracil, reference compound]
result: > 100 µM

molecule: CCCC(CCC)C(=O)NN [Compound 2, Valproic Hydrazide]
result: > 100 µM

molecule: CCCC(CCC)C(=O)N/N=C1\C(=O)Nc2ccc(F)cc21
result: > 100 µM

molecule: CCCC(CCC)C(=O)N/N=C1\C(=O)Nc2ccccc21
result: > 100 µM

molecule: CC(=O)N1C(=O)C(=O)c2ccccc21
result: > 100 µM

molecule: O=C1Nc2ccccc2C1=O
result: 16.7 µM

molecule: CCCC(CCC)C(=O)O [Compound 1, Valproic acid, reference compound]
result: 63 µM

molecule: CCCC(CCC)C(=O)NNC(=O)C(=O)c1ccccc1NC(C)=O
result: > 100 µM

molecule: CCCC(CCC)C(=O)N/N=C1\C(=O)N(CCBr)c2ccccc21
result: 45.4 µM

Attribution: paper PMC6332339
